Below is a list of entries, each paired with its recorded IC50 value.
- Test system: TGF-beta-induced phosphorylation of Smad2 (Ser465/467) and Smad3 (Ser423/425) in Mv1-Lu cells
- Protocol Details: Inhibition of Smad2/3 phosphorylation in Mv1Lu cells (PathScan Phospho-Smad2 ELISA)
- Assay type: cell-based, mink Mustela vison
- Conditions: Neogale vison, Mv1-Lu cells, TGF-beta 1 5 ng/ml, Phospho-Smad2/3 ELISA, read-out: TβR activity (Example 51)

Guide cases for IC50, answers given:
molecule="Nc1ccc2cnccc2c1-c1cc(-c2ccccc2F)nc2ncccc12 [Compound 62]" observed_measurement="1000 to 10000 nM"
molecule="CN(C)CC(=O)Nc1nccc2c(-c3cc(-c4ccccc4F)nc4ncccc34)nccc12 [Compound 71]" observed_measurement="1000 to 10000 nM"
molecule="Nc1nccc2c(-c3cc(-c4cc(Cl)ccc4F)nc4ncccc34)cccc12 [Compound 4]" observed_measurement="< 1000 nM"
molecule="Fc1ccccc1-c1cc(-c2ncnc3cnccc23)c2cccnc2n1 [Compound 18]" observed_measurement="> 10000 nM"

# input for lookup
**Query** Give its IC50 value. Item: c1coc(-c2cc(-c3c[nH]c4cnccc34)c3cccnc3n2)c1 [Compound 101]
**Result** < 1000 nM
